Quick reference: enrichment of the listed items.
B1: NF2 (merlin) isoform 7, human, full length (507 aa, lacks exons 2-3 = isoform-1 residues 39-121; exon-16 C-terminus), P35240-4 (parent)
chain: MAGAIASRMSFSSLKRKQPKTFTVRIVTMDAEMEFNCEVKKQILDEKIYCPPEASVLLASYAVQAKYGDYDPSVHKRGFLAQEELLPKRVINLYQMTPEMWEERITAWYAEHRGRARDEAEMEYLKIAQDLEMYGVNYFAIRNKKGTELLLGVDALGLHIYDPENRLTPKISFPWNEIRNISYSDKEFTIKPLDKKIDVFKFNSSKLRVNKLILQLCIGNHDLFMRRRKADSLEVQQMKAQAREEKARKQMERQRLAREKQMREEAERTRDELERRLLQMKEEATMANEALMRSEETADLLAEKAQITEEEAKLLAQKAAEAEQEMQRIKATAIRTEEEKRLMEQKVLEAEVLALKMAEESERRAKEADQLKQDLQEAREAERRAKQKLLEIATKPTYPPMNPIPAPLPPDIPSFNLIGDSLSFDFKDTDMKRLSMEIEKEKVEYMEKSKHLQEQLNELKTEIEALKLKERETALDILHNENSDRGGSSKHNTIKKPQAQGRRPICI

variants of: B1; experiment: reverse yeast two-hybrid deep mutational scan (rY2H-seq): NF2 isoform 7 mutant library as bait mated with wild-type prey strains; selection on medium lacking adenine for non-interacting pairs; NextSeq paired-end sequencing; enrichment vs …; conditions: with KDM1A (lysine-specific histone demethylase 1A; the table's label AOF2 is a gene synonym of KDM1A), O60341; yeast diploids after mating (RBait_S3 x RPrey_S3), 30 °C, selection for reporter genes on NB agar; human ABL2 co-expressed as the kinase-dead K35M mutant …; HIGHER = WEAKER BINDING (the opposite of display enrichments): higher = stronger loss of interaction: reverse Y2H selects yeast in which bait and prey do NOT interact (growth without adenine), so a …; hits-only table; scale: rY2H score; numbering: uniprot, sequence starts at 1
Answer field: number only, no words.

Examples with their reported enrichment follow.
>>> reported("A59S")
4.04
>>> reported("A331K")
2.19
>>> reported("P405S")
6.05

Query variant follows.
Query: Recorded enrichment of `S361A` , please.
Reply: 5
